Values were extracted from ChEMBL document CHEMBL1157640.

System Tested: LL-diaminopimelate aminotransferase, chloroplastic (Arabidopsis thaliana)
Sequence (Q93ZN9 whole entry): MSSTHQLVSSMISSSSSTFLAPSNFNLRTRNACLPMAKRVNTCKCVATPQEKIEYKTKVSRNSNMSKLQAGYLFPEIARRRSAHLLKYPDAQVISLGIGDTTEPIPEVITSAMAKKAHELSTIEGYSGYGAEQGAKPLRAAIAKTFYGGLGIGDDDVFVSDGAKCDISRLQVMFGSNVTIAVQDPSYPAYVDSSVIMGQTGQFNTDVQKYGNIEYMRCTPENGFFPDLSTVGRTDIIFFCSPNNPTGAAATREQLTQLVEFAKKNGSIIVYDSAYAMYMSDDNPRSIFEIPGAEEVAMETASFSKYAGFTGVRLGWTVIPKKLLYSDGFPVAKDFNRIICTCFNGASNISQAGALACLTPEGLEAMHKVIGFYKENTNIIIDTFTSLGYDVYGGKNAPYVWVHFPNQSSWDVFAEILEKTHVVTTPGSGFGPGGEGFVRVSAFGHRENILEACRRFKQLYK
Protocol Description: Inhibition of Arabidopsis thaliana LL-DAP-AT expressed in Escherichia coli by aminobenzaldehyde-based assay
Measurement Context: read-out: IC50
pIC50: −log10 of the molar value.
Quantity Measured: pIC50

1) COc1ccc(/C=C2\SC(=S)N(N)C2=O)cc1: 3.81
2) O=C(Cn1c(/C=C2/C(=O)NC(=O)N(c3cccc(F)c3)C2=O)cc2ccccc21)Nc1ccccc1: 4.28
3) COc1ccc(/C=C2/C=C(c3ccccc3)OC2=O)c(OC)c1: 3.80
4) O/C(=C\c1nc2ccccc2nc1O)c1cccs1: 4.51
5) O=C(Cn1c(/C=C2/C(=O)NC(=S)N(c3ccccc3)C2=O)cc2ccccc21)Nc1ccccc1: 4.48
6) Cc1ccc(N2C(=O)/C(=C\c3cc4ccccc4[nH]3)C(=O)NC2=S)cc1: 3.79
7) N=C1NC(=O)/C(=C/c2ccc(-c3ccc([N+](=O)[O-])cc3Br)o2)S1: 4.07
8) O=C1OC(c2ccccc2)=C/C1=N\Nc1ccccc1C(=O)O: 4.41
9) Cc1nc(C)c(C(=O)/C=C2/Nc3ccccc3NC2=O)s1: 4.25
